Test system: H1299
experimentalDetails: Cell proliferation by MTS method, H1299
Assay type: cell-based
testParameters: Homo sapiens, NCI-H1299, Lung Cancer
reportedEndpoint: IC50 (nM)
Give bare numbers, in nM.

# input Tell me the measured IC50 of Cn1c(C(=O)N2CCN(Cc3ccc(OCC(F)(F)F)cc3)CC2)cc2ccc(Oc3cnc(-c4nc(-c5ccc(C(F)(F)F)cc5)no4)cn3)cc21 , please.
# output 26

###

As an illustration, consider measured Kd for compounds on STAT3 SH2 domain (Homo sapiens, UniProt P40763).
Sequence (P40763 580-670 limits assumed): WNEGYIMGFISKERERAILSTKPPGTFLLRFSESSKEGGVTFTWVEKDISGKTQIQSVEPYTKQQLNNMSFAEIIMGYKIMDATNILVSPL
Answers are plain numbers, in nM.

Cn1c(C(=O)N2CCN(Cc3ccc(OCC(F)(F)F)cc3)CC2)cc2ccc(Oc3cnc(-c4nc(-c5ccc(C(F)(F)F)cc5)no4)cn3)cc21 [Example 6] :: 2.25

Please examine the following record next.
# input Tell me the measured Kd of Cc1nc(-c2nc(-c3ccc(OC(F)(F)F)cc3)no2)nn1Cc1cccc(N2CCC(S(C)(=O)=O)CC2)c1 [IACS-010759, reference compound] , please.
# output 2780

###

Answer each item with its documented pKd.
studySystem: STAT3 protein (Homo sapiens, UniProt P40763)
Sequence (P40763 whole entry): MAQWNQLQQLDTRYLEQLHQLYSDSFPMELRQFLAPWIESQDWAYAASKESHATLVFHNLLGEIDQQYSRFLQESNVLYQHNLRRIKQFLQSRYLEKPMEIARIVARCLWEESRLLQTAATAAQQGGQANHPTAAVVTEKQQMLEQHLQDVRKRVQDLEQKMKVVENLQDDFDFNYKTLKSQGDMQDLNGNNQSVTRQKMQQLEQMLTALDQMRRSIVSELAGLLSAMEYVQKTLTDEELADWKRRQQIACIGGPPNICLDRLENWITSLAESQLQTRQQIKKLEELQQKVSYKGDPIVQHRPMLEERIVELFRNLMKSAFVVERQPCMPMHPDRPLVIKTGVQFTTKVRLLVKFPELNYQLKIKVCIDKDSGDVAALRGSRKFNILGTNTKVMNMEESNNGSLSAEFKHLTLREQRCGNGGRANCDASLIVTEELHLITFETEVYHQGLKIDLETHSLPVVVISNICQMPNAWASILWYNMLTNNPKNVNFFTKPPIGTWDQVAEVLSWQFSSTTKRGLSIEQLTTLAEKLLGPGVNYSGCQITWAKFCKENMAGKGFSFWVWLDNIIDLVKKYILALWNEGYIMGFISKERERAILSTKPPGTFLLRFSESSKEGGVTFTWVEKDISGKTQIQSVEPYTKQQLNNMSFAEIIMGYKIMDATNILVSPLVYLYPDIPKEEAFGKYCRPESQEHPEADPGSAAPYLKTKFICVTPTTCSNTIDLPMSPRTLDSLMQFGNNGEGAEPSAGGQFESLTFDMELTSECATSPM
experimentalDetails: Binding activity to STAT3 protein by microscale thermophoresis (MST)
testParameters: purified STAT3 recombinant protein
Experimental: (1) Determination of Binding Activities of Compounds to STAT3 Protein by Microscale Thermophoresis (MST) Method The microscale thermophoresis (MST) technique is a simple, rapid, and accurate method for quantifying biomolecular interactions. It can measure the movement of molecules in a microscopic temperature gradient field, as well as detect changes of molecular hydration shell, charge and size. […] The binding constants (K^D) of small molecules to STAT3 protein were analyzed by Mo. analysis software.
pKd: −log10 of the molar value.

Below are worked cases with known answers.
COc1ccc(-c2noc(-c3cnc(Oc4ccc5cc(C(=O)N6CCN(Cc7ccc(OCC(F)(F)F)cc7)CC6)n(C)c5c4)cn3)n2)cc1 :: > 8.00
C=CCn1c(C(=O)N2CCN(Cc3ccc(OCC(F)(F)F)cc3)CC2)cc2ccc(Oc3cnc(-c4nc(-c5ccc(C(F)(F)F)cc5)no4)cn3)cc21 :: > 8.00
Cn1c(C(=O)N2CCN(C(=O)CCl)CC2)cc2ccc(Oc3cnc(-c4nc(-c5ccc(C(F)(F)F)cc5)no4)cn3)cc21 :: > 7.00
O=C(c1cc2ccc(Oc3cnc(-c4nc(-c5ccc(C(F)(F)F)cc5)no4)cn3)cc2n1Cc1ccccc1)N1CCN(Cc2ccc(OCC(F)(F)F)cc2)CC1 :: > 7.00
Cn1c(C(=O)N2CCN(Cc3ccc(OCC(F)(F)F)cc3)CC2)cc2ccc(Oc3cnc(-c4nc(-c5ccccc5)no4)cn3)cc21 :: > 8.00

Please examine the following record next.
# input Tell me the measured pKd of Cn1c(C(=O)N2CCN(Cc3ccccc3)CC2)cc2ccc(Oc3cnc(-c4nc(-c5ccc(C(F)(F)F)cc5)no4)cn3)cc21 , please.
# output > 7.00

###

Tested on: Capan-2
experimentalDetails: Cell proliferation by MTS method, Capan-2
Type: cell-based
testParameters: Capan-2, FIG. 5B; read-out: IC50, inhibition of proliferation of pancreatic cancer cells
reportedEndpoint: IC50 (nM)
One number for each entry, in nM.

# input Tell me the measured IC50 of Cc1nc(-c2nc(-c3ccc(OC(F)(F)F)cc3)no2)nn1Cc1cccc(N2CCC(S(C)(=O)=O)CC2)c1 [IACS-010759, reference compound] , please.
# output 2.7

###

Test system: BGC823
experimentalDetails: Cell proliferation by MTS method, BGC823
Type: cell-based
testParameters: Homo sapiens, BGC-823, gastric Cancer
reportedEndpoint: pIC50
Give bare numbers, as −log10 of the molar value.

# input Lab note: need pIC50 with BGC823 for entry Cn1c(C(=O)N2CCN(Cc3ccc(OCC(F)(F)F)cc3)CC2)cc2ccc(Oc3cnc(-c4nc(-c5ccc(C(F)(F)F)cc5)no4)cn3)cc21 [Example 6] , please look it up.
# output 8.21

###

Tested on: HCC827
experimentalDetails: Cell proliferation by MTS method, HCC827
Assay type: cell-based
testParameters: Homo sapiens; Table 1, HCC827; read-out: Tumour cell proliferative activity/IC50(nM) Lung Cancer HCC827
reportedEndpoint: IC50

Below are worked cases with known answers.
Cc1cccc(CN2CCN(C(=O)c3cc4ccc(Oc5cnc(-c6nc(-c7ccc(C(F)(F)F)cc7)no6)cn5)cc4n3C)CC2)c1 [Example 24] :: < 1000 nM
Cn1c(C(=O)N2CCN(Cc3ccc(OCC(F)(F)F)cc3)CC2)cc2ccc(Oc3cnc(-c4nc(-c5ccccc5C(F)(F)F)no4)cn3)cc21 [Example 7] :: < 1 nM
Cn1c(C(=O)N2CCN(Cc3ccc(C(F)(F)F)cc3)CC2)cc2ccc(Oc3cnc(-c4nc(-c5ccc(C(F)(F)F)cc5)no4)cn3)cc21 [Example 30] :: < 1000 nM

Give IC50 for each of the items listed below.
1. CC(C)C(=O)n1c(C(=O)N2CCN(Cc3ccc(OCC(F)(F)F)cc3)CC2)cc2ccc(Oc3cnc(-c4nc(-c5ccc(C(F)(F)F)cc5)no4)cn3)cc21 [Example 19]
2. COc1ccc(-c2noc(-c3cnc(Oc4ccc5cc(C(=O)N6CCN(Cc7ccc(OCC(F)(F)F)cc7)CC6)n(C)c5c4)cn3)n2)cc1 [Example 5]
3. CCCn1c(C(=O)N2CCN(Cc3ccc(OCC(F)(F)F)cc3)CC2)cc2ccc(Oc3cnc(-c4nc(-c5ccc(C(F)(F)F)cc5)no4)cn3)cc21 [Example 16]
4. COc1ccc(CN2CCN(C(=O)c3cc4ccc(Oc5cnc(-c6nc(-c7ccc(C(F)(F)F)cc7)no6)cn5)cc4n3C)CC2)cc1 [Example 31]
5. Cn1c(C(=O)N2CCN(Cc3ccc(Cl)cc3)CC2)cc2ccc(Oc3cnc(-c4nc(-c5ccc(C(F)(F)F)cc5)no4)cn3)cc21 [Example 27]

# output
["< 10 nM", "< 10 nM", "< 100 nM", "< 100 nM", "< 100 nM"]

Give IC50 for each of the items listed below.
1. O=C(c1cc2ccc(Oc3cnc(-c4nc(-c5ccc(C(F)(F)F)cc5)no4)cn3)cc2n1Cc1ccccc1)N1CCN(Cc2ccc(OCC(F)(F)F)cc2)CC1 [Example 22]
2. Cn1c(C(=O)N2CCN(Cc3ccc(OCC(F)(F)F)cc3)CC2)cc2ccc(Oc3cnc(-c4nc(-c5ccc(OC(F)(F)F)cc5)no4)cn3)cc21 [Example 13]
3. CCOC(=O)Cn1c(C(=O)N2CCN(Cc3ccc(OCC(F)(F)F)cc3)CC2)cc2ccc(Oc3cnc(-c4nc(-c5ccc(C(F)(F)F)cc5)no4)cn3)cc21 [Example 21]
4. Cn1c(C(=O)N2CCN(Cc3ccc(Br)cc3)CC2)cc2ccc(Oc3cnc(-c4nc(-c5ccc(C(F)(F)F)cc5)no4)cn3)cc21 [Example 28]

# output
1: < 1000 nM; 2: < 10 nM; 3: < 1000 nM; 4: < 100 nM

###

studySystem: UniProt:P40763
experimentalDetails: Binding activity to STAT3 protein by microscale thermophoresis (MST)
testParameters: purified STAT3 recombinant protein
Answer each item with its documented Kd.

Below are worked cases with known answers.
Cn1c(C(=O)N2CCN(Cc3cccc(OCC(F)(F)F)c3)CC2)cc2ccc(Oc3cnc(-c4nc(-c5ccc(C(F)(F)F)cc5)no4)cn3)cc21 :: < 100 nM
Cn1c(C(=O)N2CCN(Cc3ccc(Br)cc3)CC2)cc2ccc(Oc3cnc(-c4nc(-c5ccc(C(F)(F)F)cc5)no4)cn3)cc21 :: < 100 nM
Cn1c(C(=O)N2CCN(Cc3ccc(OCC(F)(F)F)cc3)CC2)cc2ccc(Oc3cnc(-c4nc(-c5ccc(OC(F)(F)F)cc5)no4)cn3)cc21 :: < 10 nM
Cn1c(C(=O)N2CCN(Cc3ccc(OCC(F)(F)F)cc3)CC2)cc2ccc(Oc3cnc(-c4nc(-c5ccc(F)cc5)no4)cn3)cc21 :: < 10 nM
COC(=O)Cn1c(C(=O)N2CCN(Cc3ccc(OCC(F)(F)F)cc3)CC2)cc2ccc(Oc3cnc(-c4nc(-c5ccc(C(F)(F)F)cc5)no4)cn3)cc21 :: < 1000 nM

Give Kd for each of the items listed below.
1. COc1cccc(-c2noc(-c3cnc(Oc4ccc5cc(C(=O)N6CCN(Cc7ccc(OCC(F)(F)F)cc7)CC6)n(C)c5c4)cn3)n2)c1
2. CCOC(=O)Cn1c(C(=O)N2CCN(Cc3ccc(OCC(F)(F)F)cc3)CC2)cc2ccc(Oc3cnc(-c4nc(-c5ccc(C(F)(F)F)cc5)no4)cn3)cc21
3. CCn1c(C(=O)N2CCN(Cc3ccc(OCC(F)(F)F)cc3)CC2)cc2ccc(Oc3cnc(-c4nc(-c5ccc(C(F)(F)F)cc5)no4)cn3)cc21

# output
< 10 nM
< 100 nM
< 10 nM

# input Tell me the measured Kd of CC(C)C(=O)n1c(C(=O)N2CCN(Cc3ccc(OCC(F)(F)F)cc3)CC2)cc2ccc(Oc3cnc(-c4nc(-c5ccc(C(F)(F)F)cc5)no4)cn3)cc21 , please.
# output < 10 nM
